// data source = ChEMBL document CHEMBL1123284

Molecular target: Angiotensin II receptor (Rattus norvegicus) (UniProt P29089+P25095+P35351)
Assay: Angiotensin II receptor agonist activity was tested in rat isolated uterus assay using [Asp1,Ile5]ANG II (human angiotensin II) as the standard
Type: functional, tissue-based
assay-readout: Activity

{"compound": "CC[C@H](C)[C@H](NC(=O)C1CCCN1C(=O)[C@H](Cc1c[nH]cn1)NC(=O)[C@@H](NC(=O)[C@H](Cc1ccc(O)cc1)NC(=O)[C@@H](NC(=O)[C@H](CCCN=C(N)N)NC(=O)CNC)C(C)C)[C@@H](C)CC)C(=O)O (single isomer, unassigned)", "target-of-assay": "Angiotensin II receptor (Rattus norvegicus) (UniProt P29089+P25095+P35351)", "Activity": "< 0.1%"}
{"compound": "CC[C@H](C)[C@H](NC(=O)[C@H](Cc1ccc(OC)cc1)NC(=O)[C@@H](NC(=O)[C@H](CCCN=C(N)N)NC(=O)CNC)C(C)C)C(=O)N[C@@H](Cc1c[nH]cn1)C(=O)N1CCC[C@H]1C(=O)N[C@@H](Cc1ccccc1)C(=O)O", "target-of-assay": "Angiotensin II receptor (Rattus norvegicus) (UniProt P29089+P25095+P35351)", "Activity": "< 0.1%"}

Lookup: Notebook: pull reported Activity for Angiotensin II receptor (Rattus norvegicus) (UniProt P29089+P25095+P35351), entry "CC[C@H](C)[C@H](NC(=O)[C@@H]1CCCN1C(=O)[C@H](Cc1c[nH]cn1)NC(=O)[C@@H](NC(=O)[C@H](Cc1ccccc1)NC(=O)[C@@H](NC(=O)[C@H](CCCN=C(N)N)NC(=O)CNC)C(C)C)[C@@H](C)CC)C(=O)O"
Found: < 0.1%

Lookup: Notebook: pull reported Activity for Angiotensin II receptor (Rattus norvegicus) (UniProt P29089+P25095+P35351), entry "CC[C@H](C)[C@H](NC(=O)[C@@H](NC(=O)[C@@H](NC(=O)[C@H](CCCN=C(N)N)NC(=O)CNC)C(C)C)[C@H](C)O)C(=O)N[C@@H](Cc1c[nH]cn1)C(=O)N1CCC[C@@H]1C(=O)N[C@@H](Cc1ccccc1)C(=O)O"
Found: 2%

Lookup: Notebook: pull reported Activity for Angiotensin II receptor (Rattus norvegicus) (UniProt P29089+P25095+P35351), entry "CC[C@H](C)[C@H](NC(=O)[C@H](Cc1ccc(OC)cc1)NC(=O)[C@@H](NC(=O)[C@H](CCCN=C(N)N)NC(=O)[C@@H]1CCCN1)C(C)C)C(=O)N[C@@H](Cc1c[nH]cn1)C(=O)N1CCC[C@@H]1C(=O)N[C@@H](Cc1ccccc1)C(=O)O"
Found: 0.3%
